RUN CONDITIONS: human, in vivo, iv, 0.36 mg/kg
PARAMETER MEASURED: Tmax (min)
Answers are plain numbers, in min.

Challenge: If you can, please state the reported Tmax value of COC(=O)[C@H]1[C@@H](OC(=O)c2ccccc2)C[C@@H]2CC[C@H]1N2C .
Response given: 10
